The measurements presented in this section are drawn from paper PMC5377010.

- subject.of.test: Thioredoxin Reductase (gTrxR) (Giardia duodenalis, UniProt E2RU27)
- Sequence (E2RU27 1-314): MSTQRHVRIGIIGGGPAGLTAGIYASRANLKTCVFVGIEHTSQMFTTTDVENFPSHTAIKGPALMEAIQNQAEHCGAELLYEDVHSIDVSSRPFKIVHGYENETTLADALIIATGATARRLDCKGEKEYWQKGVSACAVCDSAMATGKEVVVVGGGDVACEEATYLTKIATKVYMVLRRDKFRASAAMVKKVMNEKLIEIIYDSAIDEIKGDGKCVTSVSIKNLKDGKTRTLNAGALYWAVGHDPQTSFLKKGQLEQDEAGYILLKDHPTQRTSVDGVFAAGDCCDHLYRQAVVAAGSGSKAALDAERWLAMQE
readout.label: pKd
In simple prose, pKd is minus the logarithm base ten of a concentration in moles per litre.

Task: Reported pKd, compound O=[N+]([O-])c1ccc(SCCCCCCO)c2nonc12 : ____
Result: 6.85
